Test system: Trypanosoma cruzi
Test: Antitrypanosomal activity against GFP-expressing intracellular Trypanosoma cruzi Y trypomastigotes infected in african green monkey Vero cells assessed as inhibition of parasite proliferation incubated for 72 hrs by fluorescence based microplate reader analysis
The following compounds are shown together with reported IC50 values.

• CCCCCCCCCCCC(=O)NCc1ccccn1 = > 100 µM
• CCCCCCCC/C=C/CCCCCCCC(=O)NCc1ccccn1 = 47.6 µM

Please look at the following compound next.
Test item CCCCCCCCCCCCCCCCCC(=O)NCc1ccccn1 ; Trypanosoma cruzi; reported IC50 was 16.4 µM

----------
Tested on: Vero
Assay: Cytotoxicity against african green monkey Vero cells at 10 to 600 uM incubated for 72 hrs by resazurin dye based fluorescence assay
Assay type: toxicity, cell-based
Settings: chlorocebus sabaeus, dose 10-600 µM
EXPERIMENTAL_ENDPOINT: Activity

These recorded examples may help you get a feel for the data.
- CCCCCCCCC/C=C\CCCCCCC(=O)O: Toxic
- CCCCCCCC/C=C/CCCCCCCC(=O)NCc1ccccn1: Non-Toxic
- CCCCCC(=O)NCc1ccncc1: Non-Toxic
- CCCCCCCCCCCC(=O)NCc1ccncc1: Non-Toxic

Input CCCCC/C=C/C/C=C/CCCCCCCC(=O)O . Output Activity: Toxic

Input CCCCCCCCCCCCCCCCCC(=O)NCc1ccccn1 . Output Activity: Non-Toxic

Input CCCCCCCCCCCCCCCCCC(=O)NCc1cccnc1 . Output Activity: Non-Toxic

Input CCCCC/C=C\C/C=C\CCCCCCCC(=O)NCc1cccnc1 . Output Activity: Non-Toxic
